Data provenance: paper PMC5075098

assay: Plasma protein binding, ultracentrifugation; assay type: in vitro ADME; conditions: human, 5 μg/ml, ∼500,000 × g 2.5 h at 37°C, LC-MS/MS, SEM, read-out: % of protein bound (SEM) (converted)
Starred links: 1 amine or outer side, 2 acyl side, 3 side chain; linkers in the order of their positions; H or OH if unused. Positions of bridges follow the written chain, without caps; N, C: chain ends. Non-standard residues stand in square brackets, D forms with d. Residues, ends and D or L forms follow the SMILES beside them. *: point of attachment. Orn(4R-OH,5R-OCH2CH2NMe3+) = C[N+](C)(C)CCO[C@@H](N[*:3])[C@H](O)C[C@H](N[*:1])C(=O)[*:2]; pTerphenylCO(4''-OnC5H11) = CCCCCOc1ccc(-c2ccc(-c3ccc(C(=O)*)cc3)cc2)cc1; Orn(4R-OH,5R-OH) = O=C([C@H](C[C@@H](O)[C@@H](O)N[*:3])N[*:1])[*:2]; hTyr(3S-OH,4S-OH) = N[C@H](C(=O)O)[C@H](O)[C@@H](O)c1ccc(O)cc1; Pro(3S-OH,4S-Me) = C[C@H]1CN[C@H](C(=O)O)[C@H]1O; Hyp = O=C(O)[C@@H]1C[C@@H](O)CN1
quantityMeasured: fraction unbound

- compound: "CCCCCOc1ccc(-c2ccc(-c3ccc(C(=O)N[C@H]4C[C@@H](O)[C@@H](O)NC(=O)[C@@H]5[C@@H](O)[C@@H](C)CN5C(=O)[C@H]([C@@H](C)O)NC(=O)[C@H]([C@H](O)[C@@H](O)c5ccc(O)cc5)NC(=O)[C@@H]5C[C@@H](O)CN5C(=O)[C@H]([C@@H](C)O)NC4=O)cc3)cc2)cc1 [anidulafungin] ({pTerphenylCO(4''-OnC5H11)}-[Orn(4R-OH,5R-OH)]T[Hyp][hTyr(3S-OH,4S-OH)]T[Pro(3S-OH,4S-Me)]; lactam 1-C)"
  valueObserved: 0.014

Summary for this compound, CCCCCOc1ccc(-c2ccc(-c3ccc(C(=O)N[C@H]4C[C@@H](O)[C@@H](OCC[N+](C)(C)C)NC(=O)[C@@H]5[C@@H](O)[C@@H](C)CN5C(=O)[C@H]([C@@H](C)O)NC(=O)[C@H]([C@H](O)[C@@H](O)c5ccc(O)cc5)NC(=O)[C@@H]5C[C@@H](O)CN5C(=O)[C@H]([C@@H](C)O)NC4=O)cc3)cc2)cc1 [CD101] ({pTerphenylCO(4''-OnC5H11)}-[Orn(4R-OH,5R-OCH2CH2NMe3+)]T[Hyp][hTyr(3S-OH,4S-OH)]T[Pro(3S-OH,4S-Me)]; lactam 1-C) : fraction unbound is 0.017
